Assign Ki to each entry below.
Biological target: Adrenergic receptor alpha-1 (Rattus norvegicus, UniProt P15823+P23944+P43140)
Test: Displacement of [3H]prazosin from alpha-1 adrenergic receptor in rat cerebral cortex
Assay type: tissue-based
Please append the unit to your numeric answer.

The reported Adrenergic receptor alpha-1 (Rattus norvegicus, UniProt P15823+P23944+P43140) Ki of `CCOc1ccccc1N1CCN(CCn2nc(-c3ccc(C)cc3)c3ccccc3c2=O)CC1` is 3.9 nM

For the compound `COc1ccccc1N1CCN(CCCCn2nc(-c3ccc(C)cc3)c3ccccc3c2=O)CC1` , the measured Ki on Adrenergic receptor alpha-1 (Rattus norvegicus, UniProt P15823+P23944+P43140) was 2.6 nM

Lab entry: Adrenergic receptor alpha-1 (Rattus norvegicus, UniProt P15823+P23944+P43140) assay, compound `CCOc1ccccc1N1CCN(CCCCCCCn2nc(-c3ccc(C)cc3)c3ccccc3c2=O)CC1` , Ki = 7.33 nM

Recorded Ki for `Cc1ccc(-c2nn(CCCCCCCN3CCN(c4cccc(C(F)(F)F)c4)CC3)c(=O)c3ccccc23)cc1` on Adrenergic receptor alpha-1 (Rattus norvegicus, UniProt P15823+P23944+P43140) was 382 nM

Bench note, Adrenergic receptor alpha-1 (Rattus norvegicus, UniProt P15823+P23944+P43140): entry `Cc1ccc(-c2nn(CCN3CCN(c4ccccc4OC(C)C)CC3)c(=O)c3ccccc23)cc1` , its Ki = 5 nM

Tested on Adrenergic receptor alpha-1 (Rattus norvegicus, UniProt P15823+P23944+P43140): `CCOc1ccccc1N1CCN(CCCCn2nc(-c3ccc(C)cc3)c3ccccc3c2=O)CC1` . Observed Ki: 2.23 nM

Param item: Cc1ccc(-c2nn(CCCCN3CCN(CC4COc5ccccc5O4)CC3)c(=O)c3ccccc23)cc1 (centres undefined) ; param system: Adrenergic receptor alpha-1 (Rattus norvegicus, UniProt P15823+P23944+P43140); output Ki: 180 nM

Recorded Ki for `COc1ccccc1N1CCN(CCn2nc(-c3ccc(C)cc3)c3ccccc3c2=O)CC1` on Adrenergic receptor alpha-1 (Rattus norvegicus, UniProt P15823+P23944+P43140) was 3.5 nM

Entry `Cc1ccc(-c2nn(CCCCN3CCN(c4cccc(Cl)c4)CC3)c(=O)c3ccccc23)cc1` under Adrenergic receptor alpha-1 (Rattus norvegicus, UniProt P15823+P23944+P43140) had Ki of 12.4 nM
